Cited source for all entries: ChEMBL document CHEMBL3124784

# Test system: CHO
# test: Cytotoxicity against CHO cells after 48 hrs by MTT assay
# Format: cell-based
# experimental.parameters: Cricetulus griseus

{"columns": ["compound.string", "target.under.test", "IC50"],
 "data": [
  ["COc1ccc(Nc2nc(NCCN(CCO[C@H]3O[C@@H]4O[C@@]5(C)CC[C@H]6[C@H](C)CC[C@@H]([C@H]3C)[C@@]46OO5)CCO[C@H]3O[C@@H]4O[C@@]5(C)CC[C@H]6[C@H](C)CC[C@@H]([C@H]3C)[C@@]46OO5)nc(Nc3ccc(OC)cc3)n2)cc1.O=C(O)C(=O)O", "CHO", "> 100 µg/mL"],
  ["C[C@H]1[C@@H](OCCNCCNc2nc(N3CCCCC3)nc(N3CCCCC3)n2)O[C@@H]2O[C@@]3(C)CC[C@H]4[C@H](C)CC[C@@H]1[C@@]24OO3.O=C(O)C(=O)O", "CHO", "3.1 µM"],
  ["COc1ccc(Nc2nc(NCCN(CCO[C@H]3O[C@@H]4O[C@@]5(C)CC[C@H]6[C@H](C)CC[C@@H]([C@H]3C)[C@@]46OO5)CCO[C@H]3O[C@@H]4O[C@@]5(C)CC[C@H]6[C@H](C)CC[C@@H]([C@H]3C)[C@@]46OO5)nc(NCCN(C(C)C)C(C)C)n2)cc1.O=C(O)C(=O)O", "CHO", "> 100 µg/mL"],
  ["COc1ccc(Nc2nc(NCCNCCO[C@H]3O[C@@H]4O[C@@]5(C)CC[C@H]6[C@H](C)CC[C@@H]([C@H]3C)[C@@]46OO5)nc(Nc3ccccc3)n2)cc1.O=C(O)C(=O)O", "CHO", "> 100 µg/mL"],
  ["C[C@H]1[C@@H](OCCNCCNc2nc(N3CCOCC3)nc(N3CCOCC3)n2)O[C@@H]2O[C@@]3(C)CC[C@H]4[C@H](C)CC[C@@H]1[C@@]24OO3.O=C(O)C(=O)O", "CHO", "3.1 µM"],
  ["C[C@H]1[C@@H](OCCN(CCNc2nc(Nc3ccccc3)nc(N3CCOCC3)n2)CCO[C@H]2O[C@@H]3O[C@@]4(C)CC[C@H]5[C@H](C)CC[C@@H]([C@H]2C)[C@@]35OO4)O[C@@H]2O[C@@]3(C)CC[C@H]4[C@H](C)CC[C@@H]1[C@@]24OO3.O=C(O)C(=O)O", "CHO", "> 100 µg/mL"]
]}

====

# Tested on: CHO
# test: Cytotoxicity against CHO cells after 48 hrs by MTT assay
# Format: cell-based
# experimental.parameters: Cricetulus griseus

{"columns": ["molecule", "target.under.test", "IC50 (µM)"],
 "data": [
  ["COc1ccc(Nc2nc(NCCNCCO[C@H]3O[C@@H]4O[C@@]5(C)CC[C@H]6[C@H](C)CC[C@@H]([C@H]3C)[C@@]46OO5)nc(N3CCOCC3)n2)cc1.O=C(O)C(=O)O", "CHO", 3.1],
  ["C[C@H]1[C@@H](OCCNCCNc2nc(Nc3ccccc3)nc(Nc3ccccc3)n2)O[C@@H]2O[C@@]3(C)CC[C@H]4[C@H](C)CC[C@@H]1[C@@]24OO3.O=C(O)C(=O)O", "CHO", 16],
  ["CCc1nc(N)nc(N)c1-c1ccc(Cl)cc1 [PYRIMETHAMINE]", "CHO", 271],
  ["COc1ccc(Nc2nc(NCCN(CCO[C@H]3O[C@@H]4O[C@@]5(C)CC[C@H]6[C@H](C)CC[C@@H]([C@H]3C)[C@@]46OO5)CCO[C@H]3O[C@@H]4O[C@@]5(C)CC[C@H]6[C@H](C)CC[C@@H]([C@H]3C)[C@@]46OO5)nc(N3CCOCC3)n2)cc1.O=C(O)C(=O)O", "CHO", 0.9],
  ["C[C@H]1[C@@H](OCCN(CCNc2nc(Nc3ccccc3)nc(Nc3ccccc3)n2)CCO[C@H]2O[C@@H]3O[C@@]4(C)CC[C@H]5[C@H](C)CC[C@@H]([C@H]2C)[C@@]35OO4)O[C@@H]2O[C@@]3(C)CC[C@H]4[C@H](C)CC[C@@H]1[C@@]24OO3.O=C(O)C(=O)O", "CHO", 0.7],
  ["CC[C@H]1CN2CCc3cc(OC)c(OC)cc3[C@@H]2C[C@@H]1C[C@H]1NCCc2cc(OC)c(OC)cc21 [EMETINE]", "CHO", 0.1],
  ["COc1ccc(Nc2nc(NCCNCCO[C@H]3O[C@@H]4O[C@@]5(C)CC[C@H]6[C@H](C)CC[C@@H]([C@H]3C)[C@@]46OO5)nc(NCCN(C(C)C)C(C)C)n2)cc1.O=C(O)C(=O)O", "CHO", 0.9],
  ["C[C@H]1[C@@H](O)O[C@@H]2O[C@@]3(C)CC[C@H]4[C@H](C)CC[C@@H]1[C@@]24OO3 [ARTENIMOL]", "CHO", 148],
  ["COc1ccc(Nc2nc(NCCNCCO[C@H]3O[C@@H]4O[C@@]5(C)CC[C@H]6[C@H](C)CC[C@@H]([C@H]3C)[C@@]46OO5)nc(N3CCCCC3)n2)cc1.O=C(O)C(=O)O", "CHO", 3],
  ["COc1ccc(Nc2nc(NCCN(CCO[C@H]3O[C@@H]4O[C@@]5(C)CC[C@H]6[C@H](C)CC[C@@H]([C@H]3C)[C@@]46OO5)CCO[C@H]3O[C@@H]4O[C@@]5(C)CC[C@H]6[C@H](C)CC[C@@H]([C@H]3C)[C@@]46OO5)nc(N3CCCCC3)n2)cc1.O=C(O)C(=O)O", "CHO", 17]
]}

====

Below, each entry is listed with its recorded selectivity ratio.
# test: Selectivity index, ratio of IC50 for CHO cells to IC50 for asexual erythrocytic stage of chloroquine-sensitive Plasmodium falciparum NF54
# Type: toxicity, cell-based
# experimental.parameters: hamster; read-out: Ratio IC50
assay.endpoint: selectivity ratio

{"columns": ["compound.string", "assay.endpoint", "result"],
 "data": [
  ["C[C@H]1[C@@H](OCCN(CCNc2nc(Nc3ccccc3)nc(N3CCOCC3)n2)CCO[C@H]2O[C@@H]3O[C@@]4(C)CC[C@H]5[C@H](C)CC[C@@H]([C@H]2C)[C@@]35OO4)O[C@@H]2O[C@@]3(C)CC[C@H]4[C@H](C)CC[C@@H]1[C@@]24OO3.O=C(O)C(=O)O", "selectivity ratio", "> 13500"],
  ["COc1ccc(Nc2nc(NCCN(CCO[C@H]3O[C@@H]4O[C@@]5(C)CC[C@H]6[C@H](C)CC[C@@H]([C@H]3C)[C@@]46OO5)CCO[C@H]3O[C@@H]4O[C@@]5(C)CC[C@H]6[C@H](C)CC[C@@H]([C@H]3C)[C@@]46OO5)nc(Nc3ccc(OC)cc3)n2)cc1.O=C(O)C(=O)O", "selectivity ratio", "> 18200"],
  ["COc1ccc(Nc2nc(NCCN(CCO[C@H]3O[C@@H]4O[C@@]5(C)CC[C@H]6[C@H](C)CC[C@@H]([C@H]3C)[C@@]46OO5)CCO[C@H]3O[C@@H]4O[C@@]5(C)CC[C@H]6[C@H](C)CC[C@@H]([C@H]3C)[C@@]46OO5)nc(NCCN(C(C)C)C(C)C)n2)cc1.O=C(O)C(=O)O", "selectivity ratio", "> 3080"],
  ["COc1ccc(Nc2nc(NCCNCCO[C@H]3O[C@@H]4O[C@@]5(C)CC[C@H]6[C@H](C)CC[C@@H]([C@H]3C)[C@@]46OO5)nc(Nc3ccccc3)n2)cc1.O=C(O)C(=O)O", "selectivity ratio", "> 5050"]
]}
